Each entry below lists one item and its recorded GI50 value.
- System: SF-268
- test.name: Cytotoxicity against human SF268 cells after 48 hrs by SRB assay
- Format: functional
- condition.summary: SF-268, 48 h

compound | measure.unit | GI50
O=CN1N=C(c2cccc(Nc3ccnc4cc(Cl)ccc34)c2)CC1c1ccccc1 (stereo unspecified) | µM | 1.04
COc1cccc2c1C(=O)c1c(O)c3c(c(O)c1C2=O)C[C@@](O)(C(=O)CO)C[C@@H]3O[C@H]1C[C@H](N)[C@H](O)[C@H](C)O1 [DOXORUBICIN] | µM | 0.1
Cc1ccc(C2CC(c3ccc(Nc4ccnc5cc(Cl)ccc45)cc3)=NN2C=O)cc1 (stereo unspecified) | µM | 8.61
COc1cc(C2CC(c3ccc(Nc4ccnc5cc(Cl)ccc45)cc3)=NN2C=O)cc(OC)c1OC (stereo unspecified) | µM | 28
COc1ccc(C2CC(c3cccc(Nc4ccnc5cc(Cl)ccc45)c3)=NN2C=O)cc1 (stereo unspecified) | µM | 2.56
O=CN1N=C(c2cccc(Nc3ccnc4cc(Cl)ccc34)c2)CC1c1ccc(Cl)cc1 (stereo unspecified) | µM | 4.37

Source: ChEMBL document CHEMBL2417469
